Numbers sourced from BindingDB's records for doi:10.1021/jm800571m.

target desc: Adenosine 5'-phosphosulfate reductase (Mycobacterium tuberculosis (strain CDC 1551 / Oshkosh), UniProt P9WIK2)
Sequence (P9WIK2 whole entry): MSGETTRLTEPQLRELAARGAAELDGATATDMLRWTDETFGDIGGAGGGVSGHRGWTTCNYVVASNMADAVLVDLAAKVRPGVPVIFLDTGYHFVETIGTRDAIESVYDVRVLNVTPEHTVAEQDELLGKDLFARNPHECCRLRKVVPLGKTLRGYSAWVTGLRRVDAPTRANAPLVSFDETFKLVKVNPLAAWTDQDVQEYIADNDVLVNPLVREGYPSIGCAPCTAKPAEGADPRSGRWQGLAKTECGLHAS
procedure summary: Determination of Dissociation Constant (Kd)
measurement parameters: pH 7.5; 30 °C
I'd be grateful if you could share measured pKd for these entries.
Answers are plain numbers, as −log10 of the molar value.

{"compound": "CC(=O)[C@H]1CC[C@@H]2[C@]1(C)CC=C1[C@]23C=C[C@]2(C[C@@H](O)CC[C@]12C)C(C(=O)O)C3C(=O)O (some centres not stated)", "pKd": 3.90}

// next item, pKd requested
Q: # get_value(readout='pKd', item= "O=C(O)CSc1nnc2c3ccccc3c3ccccc3c2n1" )
Result: 4.33
